Biological target: Rac GTPase-activating protein 1 (Homo sapiens)
Assay: blockers of MgcRacGAP-driven Rac1 GTP hydrolysis – biochemical, ADP Hunter fluorescence, primary and confirmatory, confirmation (AID 624330);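 further: fluorescence reports GDP produced by GAP-driven GTP hydrolysis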
Conditions: MgcRacGAP-stimulated Rac1 GTP hydrolysis, at 30 µM, stronger effect = higher value, GST-tagged Rac1 F28L mutant substrate
Hit rate of the full screen: of about 340,000 compounds, about 2,100 (0.62%) were called active. Not all results are given here. Measured potencies and affinities stand elsewhere.
Measured inhibition by item
API: value field is a number in %; no unit string.

Use the examples below as a reference point.
# compound.string, measured.on, observed.measurement
data = [
    ("COc1ccc(/C=N/N=C(\\N)c2nonc2N)cc1", "Rac GTPase-activating protein 1 (Homo sapiens)", 6.95),
    ("N/C(=N\\N=C\\c1cccc(O)c1)c1nonc1N", "Rac GTPase-activating protein 1 (Homo sapiens)", 7.37),
    ("O=C(CN1CCOCC1)Nc1cccc(S(=O)(=O)N2CCCCCC2)c1", "Rac GTPase-activating protein 1 (Homo sapiens)", 4.7),
]

I have this compound here, `COc1ccc(/C=N/N=C(\N)c2nonc2N)cc1OC` , and I need its recorded inhibition.
0.88

Let us now turn to `COc1cc(/C=N/N=C(\N)c2nonc2N)cc(OC)c1O`
19.5

What do we get for `Cc1ccc(/C=N/N=C/c2ccc(C)cc2)cc1` ?
4.21

----------
Target: Rac GTPase-activating protein 1 (Homo sapiens)
Experiment: blockers of MgcRacGAP-driven Rac1 GTP hydrolysis – biochemical, ADP Hunter fluorescence, primary and confirmatory, confirmation (AID 624330);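 further: fluorescence reports GDP produced by GAP-driven GTP hydrolysis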
Details: MgcRacGAP-stimulated Rac1 GTP hydrolysis, at 30 µM, stronger effect = higher value, GST-tagged Rac1 F28L mutant substrate
The campaign covered roughly 340,000 compounds. About 2,100 (0.62%) were called active. A selection follows. Measured potencies and affinities stand elsewhere.
Known inhibition of a selection of compounds
I only need the number, in %, no unit after it.

# compound, inhibition, %
data = [
    ("COc1ccccc1CNC(=O)CNC(=O)N1CC(=O)Nc2ccccc21", 10.5),
]

Look at this compound and give its reported inhibition. `CN(C)CCCNc1ncnc2oc(-c3ccccc3)c(-c3ccccc3)c12`
10.3

Again, but for `O=C(CNCc1ccco1)Nc1ccccc1-n1cccc1`
12.8

Please do the same for `O=[N+]([O-])c1ccccc1N=Nc1ccc(O)cc1` as well.
9.07

Please answer likewise for `OCC[C@H]1C[C@H](O)[C@@H](O)[C@]2(CCCc3ccccc3O2)O1`
6.49

Also `COc1ccccc1CNCC(=O)Nc1ccc(C(F)(F)F)cc1` ?
25

Would you mind doing `COc1ccccc1CNCC(=O)Nc1ccc(C#N)cc1` as well?
31.8

Query Cc1cc(N2CCCC2)ccc1NC(=O)CN1C(=O)NC(C)(c2ccccc2)C1=O (configuration not stated) next
22.9

// query: `COc1ccc(NC(=O)Nc2ccon2)cc1OC`
7.89

Would you mind doing `COc1ccccc1CNCc1ccc(C)cc1` as well?
7.48

Same thing, different compound: `Cc1cc(=O)[nH]c(NN=C2C3CC4CC(C3)CC2C4)n1`
-3.7

Now give it for `COCc1[nH][nH]c(=O)c1C=Nc1ccccc1` too.
9.38

----------
Reported inhibition values for a set of compounds
Target: Rac GTPase-activating protein 1 (Homo sapiens) (UniProt Q9H0H5)
Sequence (Q9H0H5 whole entry, looked up): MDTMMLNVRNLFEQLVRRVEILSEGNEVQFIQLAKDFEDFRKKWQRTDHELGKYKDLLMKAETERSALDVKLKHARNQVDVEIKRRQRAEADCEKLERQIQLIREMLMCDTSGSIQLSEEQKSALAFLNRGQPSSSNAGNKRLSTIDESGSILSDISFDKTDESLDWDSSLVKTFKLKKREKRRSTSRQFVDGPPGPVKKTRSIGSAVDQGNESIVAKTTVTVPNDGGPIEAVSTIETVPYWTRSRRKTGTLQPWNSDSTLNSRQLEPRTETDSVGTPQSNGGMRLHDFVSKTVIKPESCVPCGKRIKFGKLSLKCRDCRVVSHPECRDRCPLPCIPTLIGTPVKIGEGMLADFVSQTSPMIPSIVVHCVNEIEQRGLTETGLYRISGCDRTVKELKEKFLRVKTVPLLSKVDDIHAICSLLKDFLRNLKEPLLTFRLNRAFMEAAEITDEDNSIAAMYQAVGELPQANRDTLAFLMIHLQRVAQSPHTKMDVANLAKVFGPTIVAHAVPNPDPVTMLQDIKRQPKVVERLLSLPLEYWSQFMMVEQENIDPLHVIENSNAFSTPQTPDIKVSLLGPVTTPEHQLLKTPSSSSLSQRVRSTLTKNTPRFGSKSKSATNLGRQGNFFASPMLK
Assay: blockers of MgcRacGAP-driven Rac1 GTP hydrolysis – biochemical, ADP Hunter fluorescence, primary and confirmatory, confirmation (AID 624330);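 further: fluorescence reports GDP produced by GAP-driven GTP hydrolysis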
Conditions: MgcRacGAP-stimulated Rac1 GTP hydrolysis, at 30 µM, stronger effect = higher value, GST-tagged Rac1 F28L mutant substrate
Hit rate of the full screen: of about 340,000 compounds, about 2,100 (0.62%) were called active. A selection follows. Results with a measured potency or affinity are listed apart.
I only need the number, in %, no unit after it.

Below, each entry is followed by its recorded inhibition result.
# compound, measured.on, display.unit, inhibition
measured = [
    ("Cc1cccc(C)c1OCCCN1CCOCC1", "Rac GTPase-activating protein 1 (Homo sapiens) (UniProt Q9H0H5)", "%", 9.47),
    ("CC1=NN(c2ccccc2)C(=O)C1C=Nc1ccccc1O (configuration not stated)", "Rac GTPase-activating protein 1 (Homo sapiens) (UniProt Q9H0H5)", "%", 14.8),
    ("O=C1ON=C(c2ccccc2)/C1=C/c1ccc(O)cc1", "Rac GTPase-activating protein 1 (Homo sapiens) (UniProt Q9H0H5)", "%", 27.7),
    ("CCOc1ccc(C2Nc3ccc4ccccc4c3-c3c2c(=O)oc2ccccc32)cc1 (configuration not stated)", "Rac GTPase-activating protein 1 (Homo sapiens) (UniProt Q9H0H5)", "%", 5.67),
    ("O=C(Cn1ncc2c1-c1ccccc1OC2)N1CCc2ccccc21", "Rac GTPase-activating protein 1 (Homo sapiens) (UniProt Q9H0H5)", "%", 2.35),
    ("COc1cccc(OC)c1OCCN1CCCC1", "Rac GTPase-activating protein 1 (Homo sapiens) (UniProt Q9H0H5)", "%", -3.59),
    ("CCOC(=O)N1CCN(c2c(N3CCN(c4ccc(F)cc4)CC3)c(=O)c2=O)CC1", "Rac GTPase-activating protein 1 (Homo sapiens) (UniProt Q9H0H5)", "%", 6.14),
    ("CCO[C@H]1OC(C(=O)NC2CC2)=C[C@@H](c2ccc3c(c2)OCO3)[C@@H]1CCCO", "Rac GTPase-activating protein 1 (Homo sapiens) (UniProt Q9H0H5)", "%", 6.42),
    ("COc1ccc(/C=C2/C(=O)ON=C2c2ccccc2)cc1OC", "Rac GTPase-activating protein 1 (Homo sapiens) (UniProt Q9H0H5)", "%", 15.4),
    ("CC1=NN(c2ccccc2)C(=O)C1C(=O)c1ccccc1 (configuration not stated)", "Rac GTPase-activating protein 1 (Homo sapiens) (UniProt Q9H0H5)", "%", 12.2),
]

Give the reported inhibition for `COc1ccc(/C=C2\C(=O)ON=C2c2ccccc2)cc1OC` (system: Rac GTPase-activating protein 1 (Homo sapiens) (UniProt Q9H0H5)).
16.1

Record: `c1ccc(CCNc2ccnc3cc4ccccc4cc23)cc1`
13.8

----------
Target: Rac GTPase-activating protein 1 (Homo sapiens) (UniProt Q9H0H5)
Test: blockers of MgcRacGAP-driven Rac1 GTP hydrolysis – biochemical, ADP Hunter fluorescence, primary and confirmatory, confirmation (AID 624330);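 further: fluorescence reports GDP produced by GAP-driven GTP hydrolysis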
Conditions: MgcRacGAP-stimulated Rac1 GTP hydrolysis, at 30 µM, stronger effect = higher value, GST-tagged Rac1 F28L mutant substrate
Screen size: about 340,000 compounds; about 2,100 (0.62%) were called active. The list is a sample of the results. Measured potencies and affinities stand elsewhere.
measured.property: inhibition

# compound.string, inhibition
rows = [
    ("O=C(CN1CCN(c2ccc(F)cc2)CC1)NC(=O)NCc1ccco1", "-4.47% (inactive)"),
    ("CCN=C1S/C(=C\\c2cc(Cl)c(OC)c(OC)c2)C(=O)N1CC", "4.7% (inactive)"),
    ("C/C(=N\\NC(=O)Cn1cnc2ccccc21)c1cccs1", "4.15% (inactive)"),
    ("CN(Cc1cccc(F)c1)C(=O)CSc1nnc(C2CC2)n1C1CC1", "7.8% (inactive)"),
]

# input molecule: `CC(=O)c1ccc(N2CCN(c3ccnc4cc(Cl)ccc34)CC2)cc1` ; wanted: its inhibition
1.01% (inactive)

Could you do the same for `COc1cc(S(N)(=O)=O)c(OC)cc1N` , please?
7.46% (inactive)

----------
Target: Rac GTPase-activating protein 1 (Homo sapiens) (UniProt Q9H0H5)
Assay: blockers of MgcRacGAP-driven Rac1 GTP hydrolysis – biochemical, ADP Hunter fluorescence, primary and confirmatory, confirmation (AID 624330);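 further: fluorescence reports GDP produced by GAP-driven GTP hydrolysis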
Details: MgcRacGAP-stimulated Rac1 GTP hydrolysis, at 30 µM, stronger effect = higher value, GST-tagged Rac1 F28L mutant substrate
The whole screen tested about 340,000 compounds, of which about 2,100 (0.62%) were called active. Not all results are given here. Measured potencies and affinities stand elsewhere.
measured.property: inhibition (%)
Give your result in % as a bare value.

Guide cases for inhibition, answers given:
# molecule, measured.on, inhibition [%]
measured = [
    ("CC(C)c1onc(C(=O)N2CCN(Cc3ccccc3)CC2)c1[N+](=O)[O-]", "Rac GTPase-activating protein 1 (Homo sapiens) (UniProt Q9H0H5)", -1.76),
    ("O=C1c2ccccc2C(=O)N1CCCCSc1nnc(-c2ccc(OC(F)F)cc2)o1", "Rac GTPase-activating protein 1 (Homo sapiens) (UniProt Q9H0H5)", -1.82),
    ("C/C(=N/NC(=O)c1cccc(Br)c1)C1CC2CCC1C2 (stereo not given)", "Rac GTPase-activating protein 1 (Homo sapiens) (UniProt Q9H0H5)", -6.86),
]

Test system Rac GTPase-activating protein 1 (Homo sapiens) (UniProt Q9H0H5); read-out inhibition; what value for `N#CC1(NC(=O)CSc2nnc3n2CCCCC3)CCCCC1` ?
4.53

Queued: `CCCOC(=O)c1ccc(Oc2c(-c3ccc(O)cc3O)n[nH]c2C)cc1`
19.3

Would you mind doing `COc1ccc(C(=O)Nc2ccc(Oc3nc(C)nc4sc(-c5ccccc5)cc34)cc2)cc1OC` as well?
2.99

Another molecule: Cc1cc(OC(C)C(=O)NCc2cccnc2)c2c(C)cc(=O)oc2c1 (stereo not given)
3.28

Try this molecule next: CC(NC(=O)CNC(=O)c1cccc(Cl)c1)c1ccccc1 (stereo not given)
0.16

Input `Cc1c(C(=O)OCC(=O)Nc2c(C)n(C)n(-c3ccccc3)c2=O)cccc1[N+](=O)[O-]`
-3.37

Also need `Cc1ccc(-c2nc(C3CCN(S(C)(=O)=O)CC3)no2)cc1` , thanks.
10.6
